Value source: patent US12729377B2

In this section we review reported Avg LDL, normalized to pre-treatment and control values for a set of substances.
System: ANGPTL3 gene
Test Summary: Example 7: serum LDL in mice
Format: in vivo
Set-up: key: ratio: (level/pre-treatment day -1 level) ÷ mean of D5W control group
Assay Context: Day 15; 0.5 mg/kg single SC injection day 1; female C57bl/6 mice, n=3; ratio to D5W control
Procedure: To further assess the in vivo activity of additional ANGPTL3 RNAi agents that are designed to target position 304 on the ANGPTL3 gene, six- to eight-week-old female C57bl/6 mice were used. […] Each of the RNAi agents included a modified sequence and an N-acetyl-galactosamine-containing targeting ligand conjugated to the 5′ terminal end of the sense strand. […] ANGPTL3 protein levels in serum were measured by ELISA assay (R&D Systems), according to the manufacturer's recommendations. […]
In the oligonucleotide strings, read from the 5' end, every base follows the letter of its sugar. An asterisk marks phosphorothioate; unmarked linkages are phosphodiester. Other units and linkages are bracketed, terminal groups are in braces. A string of capitals states the bases alone. {NAG37} = tridentate N-acetyl-galactosamine targeting ligand, structure (NAG37)s; [invAb] = inverted abasic unit; m = 2'-O-methyl; f = 2'-fluoro
Observation Type: Avg LDL, normalized to pre-treatment and control

| Substance | Target | Measured |
| --- | --- | --- |
| AD05488: RNAi agent duplex: antisense AM07235-AS, sense AM07234-SS (antisense mU*fA*mC*fUmGfAmUfCmAfAmAfUmAfUmGfUmUfGmAfG*mC; sense {NAG37}*[invAb]*mGmCmUmCmAmAmCmAfUfAfUmUmUmGmAmUmCmAmGmUmA*[invAb]) | ANGPTL3 gene | 0.825 |
| AD05308: RNAi agent duplex: antisense AM07003-AS, sense AM07002-SS (chain 1 mU*fG*mU*fUmGfAmAfUmUfAmAfUmGfUmCfCmAfUmGfG*mA; chain 2 {NAG37}*[invAb]*mUmCmCmAmUmGmGmAfCfAfUmUmAmAmUmUmCmAmAmCmA*[invAb]) | ANGPTL3 gene | 0.801 |

###

System: ANGPTL3 gene
Test Summary: Example 4: serum LDL in mice
Assay type: in vivo, C57bl/6 mice
Assay Context: Day 8; 1.0 mg/kg single SC injection on day 1; serum; n=3
In the oligonucleotide strings, read from the 5' end, every base follows the letter of its sugar. An asterisk marks phosphorothioate; unmarked linkages are phosphodiester. Other units and linkages are bracketed, terminal groups are in braces. A string of capitals states the bases alone. {NAG37} = tridentate N-acetyl-galactosamine targeting ligand, structure (NAG37)s; [invAb] = inverted abasic unit; m = 2'-O-methyl; f = 2'-fluoro
Observation Type: Avg LDL, normalized to pre-treatment and control

| Substance | Measured |
| --- | --- |
| AD05488: RNAi agent duplex: antisense AM07235-AS, sense AM07234-SS (antisense mU*fA*mC*fUmGfAmUfCmAfAmAfUmAfUmGfUmUfGmAfG*mC; sense {NAG37}*[invAb]*mGmCmUmCmAmAmCmAfUfAfUmUmUmGmAmUmCmAmGmUmA*[invAb]) | 0.936 |
| AD05308: RNAi agent duplex: antisense AM07003-AS, sense AM07002-SS (chain 1 mU*fG*mU*fUmGfAmAfUmUfAmAfUmGfUmCfCmAfUmGfG*mA; chain 2 {NAG37}*[invAb]*mUmCmCmAmUmGmGmAfCfAfUmUmAmAmUmUmCmAmAmCmA*[invAb]) | 0.842 |
| AD05418: RNAi agent duplex: antisense AM07159-AS, sense AM07158-SS (antisense mU*fU*mU*fGmAfAmUfUmAfAmUfGmUfCmCfAmUfGmGfG*mU; sense {NAG37}*[invAb]*mAmCmCmCmAmUmGmGfAfCfAmUmUmAmAmUmUmCmAmAmA*[invAb]) | 1.044 |
| AD05487: RNAi agent duplex: antisense AM07233-AS, sense AM07232-SS (antisense mU*fA*mC*fUmGfAmUfCmAfAmAfUmAfUmGfUmUfGmAfG*mU; sense {NAG37}*[invAb]*mAmCmUmCmAmAmCmAfUfAfUmUmUmGmAmUmCmAmGmUmA*[invAb]) | 0.916 |

###

In this section we review reported Avg TG (Average Triglycerides Normalized to Pre-Treatment and Control) values for a set of substances.
Tested on: ANGPTL3 gene
Test Summary: Example 4: serum triglycerides in mice
Format: in vivo
Assay Context: Day 29, 1.0 mg/kg single subcutaneous dose on day 1, female C57bl/6 mice
In the oligonucleotide strings, read from the 5' end, every base follows the letter of its sugar. An asterisk marks phosphorothioate; unmarked linkages are phosphodiester. Other units and linkages are bracketed, terminal groups are in braces. A string of capitals states the bases alone. {NAG37} = tridentate N-acetyl-galactosamine targeting ligand, structure (NAG37)s; [invAb] = inverted abasic unit; m = 2'-O-methyl; f = 2'-fluoro
Observation Type: Avg TG (Average Triglycerides Normalized to Pre-Treatment and Control)

| Substance | Measured |
| --- | --- |
| AD05488: RNAi agent duplex: antisense AM07235-AS, sense AM07234-SS (antisense mU*fA*mC*fUmGfAmUfCmAfAmAfUmAfUmGfUmUfGmAfG*mC; sense {NAG37}*[invAb]*mGmCmUmCmAmAmCmAfUfAfUmUmUmGmAmUmCmAmGmUmA*[invAb]) | 0.721 |
| AD05308: RNAi agent duplex: antisense AM07003-AS, sense AM07002-SS (chain 1 mU*fG*mU*fUmGfAmAfUmUfAmAfUmGfUmCfCmAfUmGfG*mA; chain 2 {NAG37}*[invAb]*mUmCmCmAmUmGmGmAfCfAfUmUmAmAmUmUmCmAmAmCmA*[invAb]) | 1.021 |
| AD05418: RNAi agent duplex: antisense AM07159-AS, sense AM07158-SS (antisense mU*fU*mU*fGmAfAmUfUmAfAmUfGmUfCmCfAmUfGmGfG*mU; sense {NAG37}*[invAb]*mAmCmCmCmAmUmGmGfAfCfAmUmUmAmAmUmUmCmAmAmA*[invAb]) | 0.980 |
| AD05487: RNAi agent duplex: antisense AM07233-AS, sense AM07232-SS (antisense mU*fA*mC*fUmGfAmUfCmAfAmAfUmAfUmGfUmUfGmAfG*mU; sense {NAG37}*[invAb]*mAmCmUmCmAmAmCmAfUfAfUmUmUmGmAmUmCmAmGmUmA*[invAb]) | 0.556 |

###

In this section we review reported Avg Total Chol, normalized to pre-treatment and control values for a set of substances.
System: ANGPTL3 gene
Test Summary: Example 4: serum total cholesterol in mice
Format: in vivo, C57bl/6 mice
Assay Context: Day 43, 1.0 mg/kg single SC injection on day 1, n=3
In the oligonucleotide strings, read from the 5' end, every base follows the letter of its sugar. An asterisk marks phosphorothioate; unmarked linkages are phosphodiester. Other units and linkages are bracketed, terminal groups are in braces. A string of capitals states the bases alone. {NAG37} = tridentate N-acetyl-galactosamine targeting ligand, structure (NAG37)s; [invAb] = inverted abasic unit; m = 2'-O-methyl; f = 2'-fluoro
Observation Type: Avg Total Chol, normalized to pre-treatment and control

| Substance | Target | Measured |
| --- | --- | --- |
| AD05488: RNAi agent duplex: antisense AM07235-AS, sense AM07234-SS (antisense mU*fA*mC*fUmGfAmUfCmAfAmAfUmAfUmGfUmUfGmAfG*mC; sense {NAG37}*[invAb]*mGmCmUmCmAmAmCmAfUfAfUmUmUmGmAmUmCmAmGmUmA*[invAb]) | ANGPTL3 gene | 0.837 |
| AD05487: RNAi agent duplex: antisense AM07233-AS, sense AM07232-SS (antisense mU*fA*mC*fUmGfAmUfCmAfAmAfUmAfUmGfUmUfGmAfG*mU; sense {NAG37}*[invAb]*mAmCmUmCmAmAmCmAfUfAfUmUmUmGmAmUmCmAmGmUmA*[invAb]) | ANGPTL3 gene | 0.923 |
| AD05418: RNAi agent duplex: antisense AM07159-AS, sense AM07158-SS (antisense mU*fU*mU*fGmAfAmUfUmAfAmUfGmUfCmCfAmUfGmGfG*mU; sense {NAG37}*[invAb]*mAmCmCmCmAmUmGmGfAfCfAmUmUmAmAmUmUmCmAmAmA*[invAb]) | ANGPTL3 gene | 1.002 |
| AD05308: RNAi agent duplex: antisense AM07003-AS, sense AM07002-SS (chain 1 mU*fG*mU*fUmGfAmAfUmUfAmAfUmGfUmCfCmAfUmGfG*mA; chain 2 {NAG37}*[invAb]*mUmCmCmAmUmGmGmAfCfAfUmUmAmAmUmUmCmAmAmCmA*[invAb]) | ANGPTL3 gene | 1.073 |

###

Test system: ANGPTL3 gene
Test Summary: Example 4: serum LDL in mice
Assay type: in vivo, C57bl/6 mice
Assay Context: Day 22; 1.0 mg/kg single SC injection on day 1; serum; n=3
In the oligonucleotide strings, read from the 5' end, every base follows the letter of its sugar. An asterisk marks phosphorothioate; unmarked linkages are phosphodiester. Other units and linkages are bracketed, terminal groups are in braces. A string of capitals states the bases alone. {NAG37} = tridentate N-acetyl-galactosamine targeting ligand, structure (NAG37)s; [invAb] = inverted abasic unit; m = 2'-O-methyl; f = 2'-fluoro
In this section we review reported Avg LDL, normalized to pre-treatment and control values for a set of substances.
Observation Type: Avg LDL, normalized to pre-treatment and control

| Substance | Measured |
| --- | --- |
| AD05308: RNAi agent duplex: antisense AM07003-AS, sense AM07002-SS (chain 1 mU*fG*mU*fUmGfAmAfUmUfAmAfUmGfUmCfCmAfUmGfG*mA; chain 2 {NAG37}*[invAb]*mUmCmCmAmUmGmGmAfCfAfUmUmAmAmUmUmCmAmAmCmA*[invAb]) | 0.829 |
| AD05418: RNAi agent duplex: antisense AM07159-AS, sense AM07158-SS (antisense mU*fU*mU*fGmAfAmUfUmAfAmUfGmUfCmCfAmUfGmGfG*mU; sense {NAG37}*[invAb]*mAmCmCmCmAmUmGmGfAfCfAmUmUmAmAmUmUmCmAmAmA*[invAb]) | 1.142 |
| AD05487: RNAi agent duplex: antisense AM07233-AS, sense AM07232-SS (antisense mU*fA*mC*fUmGfAmUfCmAfAmAfUmAfUmGfUmUfGmAfG*mU; sense {NAG37}*[invAb]*mAmCmUmCmAmAmCmAfUfAfUmUmUmGmAmUmCmAmGmUmA*[invAb]) | 0.845 |
| AD05488: RNAi agent duplex: antisense AM07235-AS, sense AM07234-SS (antisense mU*fA*mC*fUmGfAmUfCmAfAmAfUmAfUmGfUmUfGmAfG*mC; sense {NAG37}*[invAb]*mGmCmUmCmAmAmCmAfUfAfUmUmUmGmAmUmCmAmGmUmA*[invAb]) | 0.811 |
